tested on: Escherichia coli TOP10; test: shrunken log2 fold change of peptide-encoding DNA abundance (4.5 h post-induction vs induction); higher = less antimicrobial activity (less host growth inhibition); conditions: time post-induction: 4.5 h; library: site-saturation at positions 5, 18, 19, 20
sequences and their reported shrunken log2 fold change
quantity: shrunken log2 fold change

>>> reported("RRIRYRPPRLPRPRPRPTAQPRP")
0.0778
>>> reported("RRIRTRPPRLPRPRPRPKMTPRP")
0.214
>>> reported("RRIRERPPRLPRPRPRPTKEPRP")
-0.465
>>> reported("RRIRYRPPRLPRPRPRPNSYPRP")
-2.3
>>> reported("RRIRPRPPRLPRPRPRPKVFPRP")
-0.0552
>>> reported("RRIRIRPPRLPRPRPRPWDVPRP")
-0.468
>>> reported("RRIRRRPPRLPRPRPRPRPIPRP")
0.945
>>> reported("RRIRFRPPRLPRPRPRPNCRPRP")
0.0638
>>> reported("RRIRCRPPRLPRPRPRPYFFPRP")
-0.614
>>> reported("RRIRLRPPRLPRPRPRPKWAPRP")
-0.0391
>>> reported("RRIRMRPPRLPRPRPRPPAVPRP")
1.44
>>> reported("RRIRLRPPRLPRPRPRPPDHPRP")
0.0205
>>> reported("RRIRRRPPRLPRPRPRPMIEPRP")
0.177
>>> reported("RRIRWRPPRLPRPRPRPDFEPRP")
0.385
>>> reported("RRIRFRPPRLPRPRPRPKQNPRP")
0.249
>>> reported("RRIRRRPPRLPRPRPRPWHQPRP")
-0.111
>>> reported("RRIRQRPPRLPRPRPRPYILPRP")
-0.773
>>> reported("RRIRCRPPRLPRPRPRPMAFPRP")
-0.22
>>> reported("RRIRCRPPRLPRPRPRPRLEPRP")
0.299
>>> reported("RRIRGRPPRLPRPRPRPGGLPRP")
0.842
>>> reported("RRIRDRPPRLPRPRPRPKWLPRP")
0.223
>>> reported("RRIRERPPRLPRPRPRPASEPRP")
-0.123
>>> reported("RRIRKRPPRLPRPRPRPIHAPRP")
-0.000921
>>> reported("RRIRPRPPRLPRPRPRPFNRPRP")
-0.436
>>> reported("RRIRVRPPRLPRPRPRPWMVPRP")
-0.208
>>> reported("RRIRRRPPRLPRPRPRPILEPRP")
0.0696
>>> reported("RRIRPRPPRLPRPRPRPWWEPRP")
0.0134
>>> reported("RRIRPRPPRLPRPRPRPRAQPRP")
0.33
>>> reported("RRIRCRPPRLPRPRPRPMVGPRP")
-0.00233
>>> reported("RRIRDRPPRLPRPRPRPLMGPRP")
0.0162
>>> reported("RRIRQRPPRLPRPRPRPRGWPRP")
0.267
>>> reported("RRIRSRPPRLPRPRPRPAIHPRP")
-0.912
>>> reported("RRIRPRPPRLPRPRPRPAAVPRP")
0.41
>>> reported("RRIRWRPPRLPRPRPRPCWIPRP")
-0.072
>>> reported("RRIRKRPPRLPRPRPRPMNGPRP")
-0.0531
>>> reported("RRIRHRPPRLPRPRPRPQMKPRP")
-0.553
>>> reported("RRIRMRPPRLPRPRPRPDNFPRP")
-0.184
>>> reported("RRIRKRPPRLPRPRPRPSFHPRP")
-0.219
>>> reported("RRIRMRPPRLPRPRPRPPCQPRP")
0.505
>>> reported("RRIRNRPPRLPRPRPRPHFWPRP")
-0.285
>>> reported("RRIRARPPRLPRPRPRPYLGPRP")
0.0554
>>> reported("RRIRWRPPRLPRPRPRPCFDPRP")
0.172
>>> reported("RRIRARPPRLPRPRPRPMAEPRP")
0.238
>>> reported("RRIRTRPPRLPRPRPRPLSEPRP")
-0.127
>>> reported("RRIRNRPPRLPRPRPRPQGIPRP")
-0.216
>>> reported("RRIRFRPPRLPRPRPRPRLCPRP")
0.276
>>> reported("RRIRPRPPRLPRPRPRPSLPPRP")
-0.187
>>> reported("RRIRQRPPRLPRPRPRPGMMPRP")
-0.0714
>>> reported("RRIRPRPPRLPRPRPRPDFFPRP")
-0.0853
>>> reported("RRIRVRPPRLPRPRPRPQMIPRP")
-0.425
>>> reported("RRIRARPPRLPRPRPRPRNHPRP")
0.0958
>>> reported("RRIRDRPPRLPRPRPRPDDMPRP")
0.155
>>> reported("RRIRLRPPRLPRPRPRPSPKPRP")
0.0205
>>> reported("RRIRNRPPRLPRPRPRPFSWPRP")
0.0512
>>> reported("RRIRERPPRLPRPRPRPNNVPRP")
-0.28
>>> reported("RRIRMRPPRLPRPRPRPVWAPRP")
0.466
>>> reported("RRIRDRPPRLPRPRPRPTLIPRP")
0.0896
>>> reported("RRIRGRPPRLPRPRPRPCERPRP")
0.013
>>> reported("RRIRARPPRLPRPRPRPCPEPRP")
0.179
>>> reported("RRIRRRPPRLPRPRPRPFANPRP")
0.00652
>>> reported("RRIRVRPPRLPRPRPRPCELPRP")
-0.286
>>> reported("RRIRHRPPRLPRPRPRPVEIPRP")
-0.0173
>>> reported("RRIRMRPPRLPRPRPRPVLSPRP")
0.0984

----------
system: Escherichia coli TOP10; assay: shrunken log2 fold change of peptide-encoding DNA abundance (4.5 h post-induction vs induction); higher = less antimicrobial activity (less host growth inhibition); conditions: time post-induction: 4.5 h; library: site-saturation at positions 5, 18, 19, 20;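 further: peptides expressed intracellularly from a pBAD plasmid library in pooled LB shake-flask culture, induced with 0.3% L-arabinose, DNA abundance read by NGS, three biological replicates, DESeq2 with apeglm shrinkage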
# binarize shrunken log2 fold change: threshold -0.05 inclusive, high side Met, low side Not met

>>> class_name("RRIRDRPPRLPRPRPRPSAFPRP")
"Met"
>>> class_name("RRIRYRPPRLPRPRPRPEAGPRP")
"Met"
>>> class_name("RRIRYRPPRLPRPRPRPDRTPRP")
"Met"
>>> class_name("RRIRRRPPRLPRPRPRPRIHPRP")
"Not met"
>>> class_name("RRIRERPPRLPRPRPRPDFLPRP")
"Met"
>>> class_name("RRIRPRPPRLPRPRPRPSPAPRP")
"Met"
>>> class_name("RRIRVRPPRLPRPRPRPMLFPRP")
"Not met"
>>> class_name("RRIRGRPPRLPRPRPRPNIPPRP")
"Not met"
>>> class_name("RRIRIRPPRLPRPRPRPDAHPRP")
"Not met"
>>> class_name("RRIRHRPPRLPRPRPRPYFNPRP")
"Not met"
>>> class_name("RRIRQRPPRLPRPRPRPMDSPRP")
"Met"
>>> class_name("RRIRTRPPRLPRPRPRPFHSPRP")
"Not met"
>>> class_name("RRIRLRPPRLPRPRPRPPEQPRP")
"Met"
>>> class_name("RRIRLRPPRLPRPRPRPVYPPRP")
"Not met"
>>> class_name("RRIRRRPPRLPRPRPRPDNPPRP")
"Not met"
>>> class_name("RRIRLRPPRLPRPRPRPANIPRP")
"Not met"
>>> class_name("RRIRTRPPRLPRPRPRPRGKPRP")
"Met"
>>> class_name("RRIRKRPPRLPRPRPRPKYMPRP")
"Met"
>>> class_name("RRIRTRPPRLPRPRPRPGMYPRP")
"Not met"
>>> class_name("RRIRTRPPRLPRPRPRPARHPRP")
"Met"
>>> class_name("RRIRHRPPRLPRPRPRPMMNPRP")
"Met"
>>> class_name("RRIRHRPPRLPRPRPRPQTGPRP")
"Not met"
>>> class_name("RRIRMRPPRLPRPRPRPWARPRP")
"Met"
>>> class_name("RRIRFRPPRLPRPRPRPYHSPRP")
"Met"
>>> class_name("RRIRRRPPRLPRPRPRPPMWPRP")
"Met"
>>> class_name("RRIRTRPPRLPRPRPRPNALPRP")
"Met"
>>> class_name("RRIRMRPPRLPRPRPRPSMNPRP")
"Not met"
>>> class_name("RRIRARPPRLPRPRPRPYIQPRP")
"Not met"
>>> class_name("RRIRDRPPRLPRPRPRPQASPRP")
"Met"
>>> class_name("RRIRPRPPRLPRPRPRPESVPRP")
"Met"
>>> class_name("RRIRKRPPRLPRPRPRPRNAPRP")
"Met"
>>> class_name("RRIRPRPPRLPRPRPRPSKIPRP")
"Not met"
>>> class_name("RRIRMRPPRLPRPRPRPQVNPRP")
"Met"
>>> class_name("RRIRFRPPRLPRPRPRPDSHPRP")
"Not met"
>>> class_name("RRIRVRPPRLPRPRPRPNKSPRP")
"Not met"
>>> class_name("RRIRVRPPRLPRPRPRPRRCPRP")
"Met"
>>> class_name("RRIRQRPPRLPRPRPRPYRDPRP")
"Not met"
>>> class_name("RRIRPRPPRLPRPRPRPHSFPRP")
"Not met"
>>> class_name("RRIRNRPPRLPRPRPRPGWHPRP")
"Not met"
>>> class_name("RRIRKRPPRLPRPRPRPPSDPRP")
"Met"
>>> class_name("RRIRHRPPRLPRPRPRPTSWPRP")
"Met"
>>> class_name("RRIRRRPPRLPRPRPRPVQIPRP")
"Met"
>>> class_name("RRIRQRPPRLPRPRPRPLQWPRP")
"Met"
>>> class_name("RRIRVRPPRLPRPRPRPINHPRP")
"Not met"
>>> class_name("RRIRDRPPRLPRPRPRPSTYPRP")
"Not met"
>>> class_name("RRIRDRPPRLPRPRPRPAYTPRP")
"Met"
>>> class_name("RRIRERPPRLPRPRPRPWEPPRP")
"Met"
>>> class_name("RRIRYRPPRLPRPRPRPKFNPRP")
"Not met"
>>> class_name("RRIRVRPPRLPRPRPRPNYPPRP")
"Not met"
>>> class_name("RRIRIRPPRLPRPRPRPLYDPRP")
"Not met"
>>> class_name("RRIRFRPPRLPRPRPRPIGNPRP")
"Not met"
>>> class_name("RRIRWRPPRLPRPRPRPTNGPRP")
"Not met"
>>> class_name("RRIRMRPPRLPRPRPRPLGPPRP")
"Met"
>>> class_name("RRIRNRPPRLPRPRPRPMCSPRP")
"Not met"
>>> class_name("RRIRQRPPRLPRPRPRPCIVPRP")
"Not met"
>>> class_name("RRIRVRPPRLPRPRPRPYRMPRP")
"Not met"
>>> class_name("RRIRDRPPRLPRPRPRPPHNPRP")
"Not met"
>>> class_name("RRIRQRPPRLPRPRPRPDQLPRP")
"Not met"
>>> class_name("RRIRSRPPRLPRPRPRPHYCPRP")
"Not met"
>>> class_name("RRIRHRPPRLPRPRPRPCGQPRP")
"Met"
>>> class_name("RRIRCRPPRLPRPRPRPFEGPRP")
"Met"
>>> class_name("RRIRGRPPRLPRPRPRPQKPPRP")
"Met"
